Reported ED50 by item:
# EXPERIMENTAL TARGET: Potassium-transporting ATPase (Rattus norvegicus) (UniProt P09626+P18598)
# EXPERIMENTAL DETAILS: Inhibition of isolated rat H+/K+ ATPase.
# Format: protein-complex assay
Entry rule: numbers only, all in mg/kg.

Known ED50 results, listed for orientation:
# MOLECULE, ED50, mg/kg
records = [
    ("CCSc1ccnc(C[S+]([O-])c2nc3ccccc3n2C(C)OC(C)=O)c1C (stereo in doubt; 19a)", 2),
    ("CCSc1ccnc(C[S+]([O-])c2nc3ccccc3n2COC(C)=O)c1C (centres undefined)", 2),
    ("[O-][S+](Cc1ccccn1)c1nc2ccccc2[nH]1 (centres undefined) [TIMOPRAZOLE]", 4),
    ("CCSc1ccnc(C[S+]([O-])c2nc3ccccc3n2C(=O)OC(C)C)c1C (centres undefined)", 10),
    ("CCSc1ccnc(C[S+]([O-])c2nc3ccccc3[nH]2)c1C (centres undefined) [DISUPRAZOLE]", 1),
    ("CCSc1ccnc(C[S+]([O-])c2nc3ccccc3n2C(C)OC(C)=O)c1C (stereo in doubt; 19b)", 2),
    ("CCOC(C)n1c([S+]([O-])Cc2ncc(C)c(OC)c2C)nc2ccccc21 (centres undefined)", 1),
    ("CC(C)C(=O)OCn1c([S+]([O-])Cc2ccccn2)nc2ccccc21 (centres undefined)", 4),
]

Now consider the entry below.
Ask | Report ED50 for C=COC(=O)n1c([S+]([O-])Cc2nccc(SCC)c2C)nc2ccccc21 (centres undefined)
Reply | 10

----------
# EXPERIMENTAL TARGET: Potassium-transporting ATPase (Rattus norvegicus) (UniProt P09626+P18598)
# EXPERIMENTAL DETAILS: Activity was evaluated by measuring the inhibition of isolated rat H+/K+ ATPase at 10 mg/kg
# Type: organism-based
# Set-up: dose 10 mg/kg
Reported inhibition by item:
Entry rule: numbers only, all in %.

Known inhibition results, listed for orientation:
# MOLECULE, QUANTITY, OBSERVED
measured = [
    ("CCOC(=O)n1c([S+]([O-])Cc2nccc(SCC)c2C)nc2ccccc21 (centres undefined)", "inhibition", 61),
    ("CCSc1ccnc(C[S+]([O-])c2nc3ccccc3n2C(=O)OCc2ccc([N+](=O)[O-])cc2)c1C (centres undefined)", "inhibition", 44),
    ("CCSc1ccnc(C[S+]([O-])c2nc3ccccc3n2C(=O)OCCCl)c1C (centres undefined)", "inhibition", 40),
]

Now consider the entry below.
Ask | Report inhibition for CCSc1ccnc(C[S+]([O-])c2nc3ccccc3n2C(=O)OCc2ccccc2)c1C (centres undefined)
Reply | 40

----------
# EXPERIMENTAL TARGET: Potassium-transporting ATPase (Sus scrofa)
# Sequence (P18434 whole entry): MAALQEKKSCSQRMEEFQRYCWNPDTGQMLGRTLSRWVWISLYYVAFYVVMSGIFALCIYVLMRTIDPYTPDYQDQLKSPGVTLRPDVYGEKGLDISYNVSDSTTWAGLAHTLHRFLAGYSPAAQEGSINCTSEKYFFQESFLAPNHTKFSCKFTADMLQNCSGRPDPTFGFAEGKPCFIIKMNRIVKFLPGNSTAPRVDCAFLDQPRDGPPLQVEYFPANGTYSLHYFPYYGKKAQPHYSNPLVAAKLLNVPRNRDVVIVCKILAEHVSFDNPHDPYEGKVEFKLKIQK
# Sequence (P19156 whole entry): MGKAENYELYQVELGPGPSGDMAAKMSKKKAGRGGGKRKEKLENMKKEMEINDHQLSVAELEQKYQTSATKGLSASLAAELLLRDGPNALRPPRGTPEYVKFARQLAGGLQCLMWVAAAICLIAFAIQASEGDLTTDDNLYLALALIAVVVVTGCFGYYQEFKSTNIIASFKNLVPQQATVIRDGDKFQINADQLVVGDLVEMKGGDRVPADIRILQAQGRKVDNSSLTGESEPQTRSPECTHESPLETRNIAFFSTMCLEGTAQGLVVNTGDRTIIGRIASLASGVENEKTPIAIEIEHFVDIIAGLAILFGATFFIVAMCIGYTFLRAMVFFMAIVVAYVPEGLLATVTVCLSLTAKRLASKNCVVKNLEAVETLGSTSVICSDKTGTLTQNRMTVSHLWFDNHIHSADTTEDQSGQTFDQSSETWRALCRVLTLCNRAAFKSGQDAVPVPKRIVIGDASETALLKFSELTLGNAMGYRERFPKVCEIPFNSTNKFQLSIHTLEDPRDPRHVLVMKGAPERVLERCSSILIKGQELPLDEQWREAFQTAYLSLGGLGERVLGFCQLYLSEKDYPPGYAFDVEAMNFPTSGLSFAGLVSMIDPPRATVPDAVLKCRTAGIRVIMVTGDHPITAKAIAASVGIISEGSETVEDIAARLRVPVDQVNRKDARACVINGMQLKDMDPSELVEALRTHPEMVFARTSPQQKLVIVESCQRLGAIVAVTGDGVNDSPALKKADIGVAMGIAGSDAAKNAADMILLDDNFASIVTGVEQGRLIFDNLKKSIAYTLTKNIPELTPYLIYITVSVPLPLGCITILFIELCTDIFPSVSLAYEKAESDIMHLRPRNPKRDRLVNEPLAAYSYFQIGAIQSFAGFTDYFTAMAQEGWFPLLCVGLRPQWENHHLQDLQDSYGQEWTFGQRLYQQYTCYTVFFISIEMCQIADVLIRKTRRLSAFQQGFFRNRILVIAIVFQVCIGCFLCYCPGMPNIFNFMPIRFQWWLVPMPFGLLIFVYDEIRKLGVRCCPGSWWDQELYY
# EXPERIMENTAL DETAILS: Activity was evaluated by measuring the inhibition of isolated hog H+/K+ ATPase
Reported pIC50 by item:
The quantity pIC50 is defined as the negative base-10 logarithm of the molar concentration.

Ask | Report pIC50 for CCOC(C)n1c([S+]([O-])Cc2ccccn2)nc2ccccc21 (stereo not given)
Reply | 3.00

----------
# EXPERIMENTAL TARGET: Potassium-transporting ATPase (Rattus norvegicus) (UniProt P09626+P18598)
# EXPERIMENTAL DETAILS: Inhibition of isolated rat H+/K+ ATPase.
# Type: protein-complex assay
Reported ED50 by item:
Entry rule: numbers only, all in mg/kg.

Known ED50 results, listed for orientation:
# MOLECULE, OBSERVED
data = [
    ("CCSc1ccnc(C[S+]([O-])c2nc3ccccc3n2C(=O)OCC(C)C)c1C (stereo not given)", 5),
    ("CCSc1ccnc(C[S+]([O-])c2nc3ccccc3n2C(=O)Oc2ccccc2)c1C (stereo not given)", 5),
    ("CCOC(C)n1c([S+]([O-])Cc2nccc(SCC)c2C)nc2ccccc21 (stereo not given)", 1.5),
]

Ask | Provide ED50, recorded with Potassium-transporting ATPase (Rattus norvegicus) (UniProt P09626+P18598), of CC(C)COC(=O)OCn1c([S+]([O-])Cc2ccccn2)nc2ccccc21 (stereo not given)
Reply | 6

----------
Reported pIC50 by item:
# EXPERIMENTAL TARGET: UniProt P19156
# EXPERIMENTAL DETAILS: Activity was evaluated by measuring the inhibition of isolated hog H+/K+ ATPase
The quantity pIC50 is defined as the negative base-10 logarithm of the molar concentration.

# COMPOUND, OBSERVED
records = [
    ("COc1c(C)cnc(C[S+]([O-])c2nc3ccccc3n2CCN2CCOCC2)c1C (centres undefined)", 3.00),
]

Ask | Report pIC50 for CC(OC(=O)c1ccccc1)n1c([S+]([O-])Cc2ccccn2)nc2ccccc21 (stereo in doubt; 29a)
Reply | 3.40

Ask | Report pIC50 for CCSc1ccnc(C[S+]([O-])c2nc3ccccc3n2C(=O)OCc2ccccc2)c1C (centres undefined)
Reply | 4.70

Ask | Report pIC50 for CC(=O)OCn1c([S+]([O-])Cc2ccccn2)nc2ccccc21 (centres undefined)
Reply | 5.10

Ask | Report pIC50 for CCSc1ccnc(C[S+]([O-])c2nc3ccccc3n2C(=O)OCCCl)c1C (centres undefined)
Reply | 5.00

Ask | Report pIC50 for CCOC(=O)n1c([S+]([O-])Cc2nccc(SCC)c2C)nc2ccccc21 (centres undefined)
Reply | 4.70

Ask | Report pIC50 for CCSc1ccnc(C[S+]([O-])c2nc3ccccc3n2C(=O)OC(C)(C)C(Cl)(Cl)Cl)c1C (centres undefined)
Reply | 5.00

Ask | Report pIC50 for C=COC(=O)n1c([S+]([O-])Cc2nccc(SCC)c2C)nc2ccccc21 (centres undefined)
Reply | 4.52

Ask | Report pIC50 for CCSc1ccnc(C[S+]([O-])c2nc3ccccc3n2C(=O)OCc2ccc([N+](=O)[O-])cc2)c1C (centres undefined)
Reply | 4.70

----------
Reported ED50 by item:
# EXPERIMENTAL TARGET: Potassium-transporting ATPase (Rattus norvegicus) (UniProt P09626+P18598)
# EXPERIMENTAL DETAILS: Inhibition of isolated rat H+/K+ ATPase.
# Assay type: protein-complex assay
Entry rule: numbers only, all in mg/kg.

# COMPOUND, QUANTITY, OBSERVED
measured = [
    ("COC(=O)CCC(=O)OCn1c([S+]([O-])Cc2ccccn2)nc2ccccc21 (stereo not given)", "ED50", 7),
]

Ask | Report ED50 for CCCCCCCC(=O)OCn1c([S+]([O-])Cc2ccccn2)nc2ccccc21 (stereo not given)
Reply | 9

Ask | Report ED50 for COc1ccc2[nH]c([S+]([O-])Cc3ncc(C)c(OC)c3C)nc2c1 (stereo not given) [OMEPRAZOLE]
Reply | 1

Ask | Report ED50 for CCSc1ccnc(C[S+]([O-])c2nc3ccccc3n2COC(=O)C(C)(C)C)c1C (stereo not given)
Reply | 5

Ask | Report ED50 for COc1c(C)cnc(C[S+]([O-])c2nc3ccccc3n2COC(C)=O)c1C (stereo not given)
Reply | 1

----------
Reported pIC50 by item:
# EXPERIMENTAL TARGET: Potassium-transporting ATPase (Sus scrofa)
# EXPERIMENTAL DETAILS: Activity was evaluated by measuring the inhibition of isolated hog H+/K+ ATPase
The quantity pIC50 is defined as the negative base-10 logarithm of the molar concentration.

Ask | Report pIC50 for CCSc1ccnc(C[S+]([O-])c2nc3ccccc3n2COC(C)=O)c1C (stereo not given)
Reply | 3.40

Ask | Report pIC50 for COc1c(C)cnc(C[S+]([O-])c2nc3ccccc3n2COC(C)=O)c1C (stereo not given)
Reply | 3.30

Ask | Report pIC50 for COc1c(C)cnc(C[S+]([O-])c2nc3ccccc3[nH]2)c1C (stereo not given)
Reply | 4.70

Ask | Report pIC50 for COc1c(C)cnc(C[S+]([O-])c2nc3ccccc3n2C(C)OC(C)=O)c1C (stereo not given)
Reply | 2.82

----------
# EXPERIMENTAL TARGET: Potassium-transporting ATPase (Sus scrofa)
# EXPERIMENTAL DETAILS: Activity was evaluated by measuring the inhibition of isolated hog H+/K+ ATPase
Reported pIC50 by item:
The quantity pIC50 is defined as the negative base-10 logarithm of the molar concentration.

Known pIC50 results, listed for orientation:
# MOLECULE, QUANTITY, OBSERVED
records = [
    ("CCOC(C)n1c([S+]([O-])Cc2nccc(SCC)c2C)nc2ccccc21 (stereo not drawn)", "pIC50", 3.70),
    ("CCSc1ccnc(C[S+]([O-])c2nc3ccccc3[nH]2)c1C (stereo not drawn)", "pIC50", 4.70),
]

Now consider the entry below.
Ask | Report pIC50 for CCSc1ccnc(C[S+]([O-])c2nc3ccccc3n2C(=O)Oc2ccccc2)c1C (stereo not drawn)
Reply | 4.70
